Entry source: patent US20180051079A1

TEST SYSTEM: T1, CD32B (UniProt P31994 43-217, limits assumed)
T1 construct: Only the name is printed; also called FcγRIIB
T1 sequence (looked up): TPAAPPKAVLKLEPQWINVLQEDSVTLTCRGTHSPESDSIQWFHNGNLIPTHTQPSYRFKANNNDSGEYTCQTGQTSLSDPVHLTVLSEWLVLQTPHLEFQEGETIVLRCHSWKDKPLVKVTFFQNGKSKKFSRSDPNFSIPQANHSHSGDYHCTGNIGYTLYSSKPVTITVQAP
EXPERIMENTAL PROTOCOL: assay not named in Table 4
Is binding relative to wild-type Fc at least 0.6? Then true (1). If not, false (0).

[
  {
    "BINDER": "Fc variant P247L D270E N421K (other, UniProt P01857-1 104-330, looked up, domain: Fc) DKTHTCPPCPAPELLGGPSVFLFPPKLKDTLMISRTPEVTCVVVDVSHEEPEVKFNWYVDGVEVHNAKTKPREEQYNSTYRVVSVLTVLHQDWLNGKEYKCKVSNKALPAPIEKTISKAKGQPREPQVYTLPPSRDELTKNQVSLTCLVKGFYPSDIAVEWESNGQPENNYKTTPPVLDSDGSFFLYSKLTVDKSRWQQGKVFSCSVMHEALHNHYTQKSLSLSPGK",
    "ASSIGNED LABEL": "false (0)"
  },
  {
    "BINDER": "Fc variant F243L R292P V305I P396L (other, UniProt P01857-1 104-330, looked up, domain: Fc; also called Mutant 17) DKTHTCPPCPAPELLGGPSVFLLPPKPKDTLMISRTPEVTCVVVDVSHEDPEVKFNWYVDGVEVHNAKTKPPEEQYNSTYRVVSILTVLHQDWLNGKEYKCKVSNKALPAPIEKTISKAKGQPREPQVYTLPPSRDELTKNQVSLTCLVKGFYPSDIAVEWESNGQPENNYKTTPLVLDSDGSFFLYSKLTVDKSRWQQGNVFSCSVMHEALHNHYTQKSLSLSPGK",
    "ASSIGNED LABEL": "false (0)"
  },
  {
    "BINDER": "Fc variant R292P V305I P396L (other, UniProt P01857-1 104-330, looked up, domain: Fc; also called Mutant 15) DKTHTCPPCPAPELLGGPSVFLFPPKPKDTLMISRTPEVTCVVVDVSHEDPEVKFNWYVDGVEVHNAKTKPPEEQYNSTYRVVSILTVLHQDWLNGKEYKCKVSNKALPAPIEKTISKAKGQPREPQVYTLPPSRDELTKNQVSLTCLVKGFYPSDIAVEWESNGQPENNYKTTPLVLDSDGSFFLYSKLTVDKSRWQQGNVFSCSVMHEALHNHYTQKSLSLSPGK",
    "ASSIGNED LABEL": "true (1)"
  },
  {
    "BINDER": "Fc variant D270E K392T P396L (other, UniProt P01857-1 104-330, looked up, domain: Fc) DKTHTCPPCPAPELLGGPSVFLFPPKPKDTLMISRTPEVTCVVVDVSHEEPEVKFNWYVDGVEVHNAKTKPREEQYNSTYRVVSVLTVLHQDWLNGKEYKCKVSNKALPAPIEKTISKAKGQPREPQVYTLPPSRDELTKNQVSLTCLVKGFYPSDIAVEWESNGQPENNYTTTPLVLDSDGSFFLYSKLTVDKSRWQQGNVFSCSVMHEALHNHYTQKSLSLSPGK",
    "ASSIGNED LABEL": "true (1)"
  },
  {
    "BINDER": "Fc variant F243L R292P Y300L P396L (other, UniProt P01857-1 104-330, looked up, domain: Fc; also called Mutant 16) DKTHTCPPCPAPELLGGPSVFLLPPKPKDTLMISRTPEVTCVVVDVSHEDPEVKFNWYVDGVEVHNAKTKPPEEQYNSTLRVVSVLTVLHQDWLNGKEYKCKVSNKALPAPIEKTISKAKGQPREPQVYTLPPSRDELTKNQVSLTCLVKGFYPSDIAVEWESNGQPENNYKTTPLVLDSDGSFFLYSKLTVDKSRWQQGNVFSCSVMHEALHNHYTQKSLSLSPGK",
    "ASSIGNED LABEL": "true (1)"
  }
]
